Biological target: recombinant human HGF (R&D Systems, Catalog No. 294-HGN-025) (human, UniProt P14210 32-728)
Sequence (P14210 32-728 limits assumed): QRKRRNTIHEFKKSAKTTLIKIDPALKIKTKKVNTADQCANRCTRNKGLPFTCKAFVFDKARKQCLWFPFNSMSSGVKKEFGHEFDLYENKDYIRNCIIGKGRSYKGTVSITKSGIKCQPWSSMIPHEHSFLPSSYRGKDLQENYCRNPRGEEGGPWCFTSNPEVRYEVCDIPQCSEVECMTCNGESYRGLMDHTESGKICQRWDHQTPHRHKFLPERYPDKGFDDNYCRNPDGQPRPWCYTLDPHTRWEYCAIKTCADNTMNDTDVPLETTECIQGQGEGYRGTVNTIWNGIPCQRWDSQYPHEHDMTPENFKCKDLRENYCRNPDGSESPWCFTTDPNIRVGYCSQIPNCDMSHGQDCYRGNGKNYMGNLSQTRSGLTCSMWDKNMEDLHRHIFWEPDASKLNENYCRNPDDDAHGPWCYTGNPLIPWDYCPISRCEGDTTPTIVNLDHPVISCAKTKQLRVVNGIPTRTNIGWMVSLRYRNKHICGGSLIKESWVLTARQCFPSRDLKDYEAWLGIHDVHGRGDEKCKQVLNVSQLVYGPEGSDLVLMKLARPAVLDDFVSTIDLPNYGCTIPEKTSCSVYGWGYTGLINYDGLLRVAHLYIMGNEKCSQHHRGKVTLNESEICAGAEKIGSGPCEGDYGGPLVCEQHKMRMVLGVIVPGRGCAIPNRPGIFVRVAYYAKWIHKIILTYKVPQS
Assay: cell-based or functional assay
measuredParameter: IC50, neutralization of HGF stimulated BrdU incorporation in 4 MBr-5 cells (nM)
Report only the number, with the unit nM understood.

Examples with answers:
binder="anti-hHGF monoclonal antibody 1A3 (antibody, mouse IgG1, kappa, V domains shown, Murine IgG1 kappa from hybridoma) VH: EVQLVESGGGLVQPGGSLKLSCAASEFTFSNYYMSWVRQTPEKRLQWVAYISPGGGSSYYPASVKGRFTISRDNAKNTLYLQMSSLKSEDTAMYYCARQGDGYYGDYAMDYWGQGTSVTVSS VL: DIQMTQSPASLSVSVGETVTITCRASENIYSNLAWYQQKQGKSPQLLVYAATNLADGVPSRFSGSGSGTQFSLKINSLQSEDFGTYYCQHFWGTPYTFGGGTKLEIKR" unitsofmeasure=nM number=4.69
binder="anti-hHGF monoclonal antibody 3A12 (antibody, mouse IgG1, kappa, V domains shown, Murine IgG1 kappa from hybridoma) VH: EVQLVESGGGLVQPGGSLKISCAASGFTFSNYFMSWVRQTPEKRLEWVAYISSGGGSTYYPDSVKGRFTISRDNAKNTLYLQMNSLKSEDTAMYYCVRQGDGYYGDYAMDYWGQGTSVTVSS VL: DIQMTQSPASLSVSVGETVTITCRASENIYINLAWYQQKQGKSPQLLVHAATKLADGVPSRFSGSGSGTQYSLKINSLQSEDFGSYYCQHFWGTPYTFGGGTKLEIKR" unitsofmeasure=nM number=30.3

Turning now to a further binder:
Inquiry: Query (binder): anti-hHGF monoclonal antibody 1F3 (antibody, mouse IgG1, kappa, V domains shown, Murine IgG1 kappa from hybridoma) VH: EVQLVESGGGLVQSGGSLKLSCAASGFTFSNYFMSWVRQTPEKRLEWVAYISSGGGSTYYPDSVKGRFTISRDNAKNTLYLQMSSLKSEDTAMYYCVRQGDGYYGDYAMDYWGQGTSVTVSS VL: DIQMTQSPASLSVSVGETVTITCRASENIYSNLAWYQQKQGKSPQLLVYDATHLPDGVPSRFSGSGSGTQFSLKINSLQSEDFGSYYCQHFWGTPYTFGGGTRLEIKR ; field requested: IC50, neutralization of HGF stimulated BrdU incorporation in 4 MBr-5 cells
Reply text: 1.94
